# target-under-test: Focal adhesion kinase 1 (Homo sapiens) (UniProt Q05397)
# Sequence (Q05397 whole entry, looked up): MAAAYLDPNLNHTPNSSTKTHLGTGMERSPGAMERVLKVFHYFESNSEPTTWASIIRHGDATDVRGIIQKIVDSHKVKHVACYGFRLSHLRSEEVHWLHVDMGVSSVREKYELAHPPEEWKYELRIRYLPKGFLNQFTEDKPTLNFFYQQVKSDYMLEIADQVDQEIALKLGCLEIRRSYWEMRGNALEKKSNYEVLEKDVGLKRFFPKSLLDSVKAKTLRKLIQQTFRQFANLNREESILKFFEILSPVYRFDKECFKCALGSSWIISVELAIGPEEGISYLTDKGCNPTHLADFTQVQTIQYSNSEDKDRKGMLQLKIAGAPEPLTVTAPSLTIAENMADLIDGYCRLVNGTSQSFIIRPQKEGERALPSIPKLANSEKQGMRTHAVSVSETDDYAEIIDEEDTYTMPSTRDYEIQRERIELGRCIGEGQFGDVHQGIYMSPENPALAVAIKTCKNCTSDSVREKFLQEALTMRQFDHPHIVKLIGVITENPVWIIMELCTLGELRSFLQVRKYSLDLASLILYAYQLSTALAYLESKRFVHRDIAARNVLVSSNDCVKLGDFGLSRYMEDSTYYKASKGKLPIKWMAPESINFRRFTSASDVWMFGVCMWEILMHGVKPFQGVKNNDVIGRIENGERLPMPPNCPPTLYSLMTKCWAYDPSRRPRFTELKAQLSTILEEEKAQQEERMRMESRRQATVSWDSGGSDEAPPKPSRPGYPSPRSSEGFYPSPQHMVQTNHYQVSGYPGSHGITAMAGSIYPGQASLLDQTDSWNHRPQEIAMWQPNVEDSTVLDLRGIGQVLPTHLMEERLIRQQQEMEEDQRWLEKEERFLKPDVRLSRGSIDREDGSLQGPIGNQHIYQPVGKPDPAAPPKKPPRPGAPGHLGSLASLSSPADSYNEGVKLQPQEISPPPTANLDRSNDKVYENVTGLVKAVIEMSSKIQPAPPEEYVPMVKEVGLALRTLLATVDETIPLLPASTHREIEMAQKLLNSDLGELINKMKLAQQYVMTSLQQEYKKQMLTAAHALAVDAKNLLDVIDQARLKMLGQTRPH
# assay: small-molecule microarray binders of FAK, primary screen, biochemical, 635/667 nm fluorescence, BSA, DTT (AID 1130);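 note: composite of spot emission at 667 nm and signal to noise over triplicate slides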
# condition-details: PTK2 binding, 635 nm fluorescence, higher = more signal
Label satisfied when composite z-score >= -0.05; otherwise not satisfied.

Does composite z-score meet or surpass -0.05 for `CO[C@H]1COC(=O)CC=C[C@H](C)[C@H](OC)COC(=O)[C@@H](C)NC(=O)CC=C[C@@H]1C` ?
satisfied

Could you please find out whether `CO[C@H]1COC(=O)[C@H](C)COC(=O)[C@@H](OCc2ccccc2)C=C[C@@H]1C` has composite z-score that meets -0.05 or exceeds it?
not satisfied

Can `C#CCCCON=C1C[C@@H](O)[C@@H](O)[C@@H]2[C@@H]3C(=O)N(C[C@@H]4CCCO4)C(=O)[C@@H]3CC[C@@H]12` be said to have composite z-score at or above -0.05?
not satisfied

For this molecule, is measured composite z-score -0.05 or higher? `C[C@H]1CC[C@H]2C(=O)N[C@H](Cc3ccccc3)C(=O)N2[C@@H]1c1ccccc1`
satisfied

Is reported composite z-score greater than or equal to -0.05 here: `O=C1[C@H]2[C@H]3[C@H](O)[C@H](O)CC(=NOC[C@@H](O)COCc4ccco4)[C@@H]3CC[C@H]2C(=O)N1c1cccc(Oc2ccccc2)c1`
not satisfied

Could you please find out whether `CCN1C(=O)[C@H]2[C@H]3[C@H](O)[C@H](O)CC(=NO[C@@H]4O[C@H](COC(C)=O)[C@@H](OC(C)=O)[C@H](OC(C)=O)[C@H]4OC(C)=O)[C@@H]3CC[C@H]2C1=O` has composite z-score that meets -0.05 or exceeds it?
satisfied

State whether the measured composite z-score reaches -0.05, counting equality as reaching it, for `CCN1C(=O)[C@H]2[C@H]3[C@H](O)[C@H](O)CC(=NOC[C@@H](O)COCc4ccco4)[C@H]3CC[C@H]2C1=O`
satisfied

For this molecule, is measured composite z-score -0.05 or higher? `CCOC(=O)CCN1C(=O)[C@H]2[C@@H]3C(=CC[C@H]2C1=O)C(=O)[C@H]1O[C@H]1[C@H]3O`
not satisfied

I'd appreciate it if you could say whether `CC(=O)OC[C@H]1O[C@H](C#CCC2CCCCC2)C=C[C@@H]1OC(C)=O` has composite z-score at least equal to -0.05.
not satisfied

Is reported composite z-score greater than or equal to -0.05 here: `COC(=O)[C@@H]1CC[C@H](C)[C@@H](c2ccc(Br)cc2)N1C[C@H](O)CN=[N+]=[N-]`
satisfied

Dear colleague, could you confirm whether `CC(C)=CCCC(C)=CCON=C1C[C@@H](O)[C@@H](O)[C@@H]2[C@@H]3C(=O)N(C4CCCCC4)C(=O)[C@@H]3CC[C@H]12` has composite z-score at or above -0.05?
satisfied

Dear colleague, could you confirm whether `COc1ccc(O[C@H]2C=C[C@@H](c3ccccc3)O[C@@H]2COC(=O)NCc2cccc3ccccc23)cc1` has composite z-score at or above -0.05?
not satisfied

---

# assay: modulators of S6 phosphorylation in cells, primary screen, cell-based, A549, cytoblot, luminescence, serum-stimulated (AID 1158);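 note: serum-stimulated A549 lung adenocarcinoma cells; signal is phosphorylated S6 detected by cytoblot immunostaining with HRP secondary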
# condition-details: A549 phospho-S6 cytoblot, 5 h, higher = more signal
Exercise: for every item that follows, state its recorded z-score.

For the compound `O=C(NN=C1C[C@@H](O)[C@@H](O)[C@@H]2[C@@H]3C(=O)N(Cc4ccccc4)C(=O)[C@@H]3CC[C@H]12)OCc1ccccc1` , report z-score.
-0.276

Look up and report measured z-score for this entry: COC(=O)C(C(=O)OC)C1CCCC(=O)C1 (stereo not drawn)
0.649

Given `CCOC(=O)CCN1C(=O)[C@H]2[C@H]3[C@H](O)[C@H](O)CC(=O)[C@@H]3CC[C@H]2C1=O` , respond with its z-score.
-0.373

---

# assay: E. coli acrAB mutant growth effects, primary screen, E. coli filamentation inducers, strain DRC39, OD650, 24 h (AID 1178);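 note: growth measured as culture turbidity by optical density at 650 nm; test concentration not given here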
# condition-details: higher = more signal, called active from +8 up or from −8 down
Note to self: class labels come from recorded z-score, ranges listed here: low group: < -0.3; middle group: ≥ -0.3 and < 0.6; high group: ≥ 0.6

Category lookup for the molecule CCOC(=O)[C@H](Cc1ccccc1)NC(=O)CCC1CC(OC(=O)NCc2ccc3c(c2)OCO3)CC2(CCCC(COC(=O)NCCOC)O2)O1 (stereo not given in full)
low group

Lab log: `COc1ccc(COC(=O)NN=C2C[C@@H](O)[C@@H](O)[C@@H]3[C@@H]4C(=O)N(C[C@@H]5CCCO5)C(=O)[C@@H]4CC[C@H]23)cc1` — assign z-score category
middle group

Which bin should I file `CO[C@H]1COC(=O)[C@H](C)COC(=O)[C@H](C)NC(=O)CC=C[C@H]1C` under?
high group

Assign a bin to `CO[C@@H]1C=CCC(=O)N[C@@H](C)C(=O)OC[C@@H](NS(=O)(=O)c2ccc(C)cc2)[C@H](C)C=CCC(=O)OC[C@H]1C`
middle group

Band assignment needed for CCOC(=O)[C@H](Cc1ccccc1)NC(=O)CCC1CC(OC(=O)NCc2cccc3ccccc23)CC2(CCCC(COC(=O)NCCc3ccccc3OC)O2)O1 (stereo not given in full) please.
middle group

# classify by z-score band: `COc1ccc(OC[C@H]2CN3[C@@H](CC[C@@H](C)[C@@H]3c3ccc(Br)cc3)C(=O)O2)cc1`
low group

Which class does CCOC(=O)[C@H](CC(C)C)NC(=O)CCC1CC(OC(=O)NCc2ccc3c(c2)OCO3)CC2(CCCC(COC(=O)NCCc3ccc(Cl)cc3)O2)O1 (stereo not given in full) fall in?
middle group

Please let me know in which category the item `CC(C)CON=C1C[C@@H](O)[C@@H](O)[C@@H]2[C@@H]3C(=O)N([C@@H](C)c4ccccc4)C(=O)[C@@H]3CC[C@@H]12` belongs.
middle group

Hello team, could you let me know which band the following molecule falls into: `COC(=O)CC=C1c2ccccc2[C@H](OC)[C@H]1C`
middle group

Which bin, given its z-score, does `C=CC[C@@H]1C=C[C@H](ON=CC[C@@H]2C=C[C@H](OC(C)=O)[C@@H](COC(C)=O)O2)[C@@H](CO)O1` occupy?
high group

Which bin should I file C=CCOCC1CN2[C@@H](CC[C@@H](C)[C@@H]2c2ccc(Br)cc2)C(=O)O1 (stereo not given in full) under?
high group

The entry to classify is `CCOC(=O)CCN1C(=O)[C@H]2[C@H]3[C@H](O)[C@H](O)CC(=O)[C@@H]3CC[C@H]2C1=O` ; which class holds it?
low group

Bin? `CCCNC(=O)OC[C@H]1O[C@H](CCON=C[C@@H](C)[C@H](OCc2ccccc2)C(C)C)C=C[C@@H]1Oc1ccc(OC)cc1`
middle group

Determine which band this molecule sits in: `COC(=O)[C@@H]1CC[C@H](C)[C@@H](c2ccc(C)cc2)N1C(=O)c1ccc(C=NOC[C@H]2O[C@H](c3ccccc3)C=C[C@@H]2Oc2ccc(OC)cc2)cc1`
low group

Entry CCOC(=O)[C@H](Cc1ccccc1)NC(=O)CCC1CC(OC(=O)NCCc2ccc(F)cc2)CC2(CCCC(COC(=O)NCCC(C)C)O2)O1 (stereo not given in full) belongs to which category?
high group

Assign a category based on measured z-score for `COc1ccc2c(c1)O[C@@H](c1cccc(C(F)(F)F)c1)[C@H](O)C2=O` and give only the class name.
high group

Into which category would you place COC(=O)[C@H](C)NC(=O)CCC1CC(OC(=O)NCc2cccc3ccccc23)CC2(CCCC(COC(=O)NCCc3ccccc3OC)O2)O1 (stereo not given in full) ?
high group

Given `CO[C@@H]1[C@H](O)CO[C@H]1C=Cc1ccccc1` , name the class its z-score places it in.
low group

Into which category would you place `C=CC[C@@H]1C=C[C@H](Oc2ccc(C)cc2)[C@@H](COC(=O)NCc2cccc3ccccc23)O1` ?
low group

---

# target-under-test: Concanavalin-A (Canavalia ensiformis)
# assay: ConA small-molecule binders, primary screen, artefact control for SMM control protein annotation, biochemical, small-molecule microarray, Alexa647 label, 635 nm (AID 1127);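 note: z combines 667 nm emission intensity with signal-to-noise across three replicate slides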
# condition-details: ConA-A647 binding fluorescence, higher = more signal
What composite z-score was measured for each of the following?
API doc: respond with a numeric literal and nothing else, no unit.

Determine from records and report composite z-score for `CC(CCN1CCCc2nc(C)c(C)cc21)=NOC[C@@H](O)COCc1ccco1`
-1.09

Determine from records and report composite z-score for CCOC(=O)[C@H](Cc1ccccc1)NC(=O)CCC1CC(OC(=O)NCc2cccc3ccccc23)CC2(CCCC(COC(=O)NCCc3ccccc3OC)O2)O1 (some centres undefined)
0.879

// fetch composite z-score given entry `CSCC[C@@H]1NC(=O)CC=C[C@@H](C)COC(=O)[C@H](C)COC1=O`
-2.98

Please look at this molecule and report its composite z-score: `CO[C@H]1COC(=O)CCC[C@H](C)[C@@H](OC)COC(=O)CC=C[C@@H]1C`
-0.427

# return recorded composite z-score for input `CC(=O)OC[C@H]1O[C@H](CC=NO[C@@H](C)c2cn([C@H](CO)Cc3ccccc3)nn2)C=C[C@@H]1OC(C)=O`
0.506

Fill in composite z-score for record `CO[C@@H]1C=CCC(=O)N[C@@H](C)C(=O)OC[C@@H](OC)[C@H](C)C=CCC(=O)OC[C@H]1C`
-1.09

Provide only the value of recorded composite z-score for `CC(CCN1CCCCc2nc(C)c(C)cc21)=NO[C@@H](C)c1cc(-c2c(C)cc(C)cc2C)no1`
-1.84

Look up and state reported composite z-score for `CC(=O)OC[C@H]1O[C@H](CC=NO[C@@H](C)c2cc(-c3c(C)cc(C)cc3C)no2)C=C[C@@H]1OC(C)=O`
0.105

Please look at this molecule and report its composite z-score: CC(C)=NOC(C)CN1CCCc2nc(C)c(C)cc21 (centres undefined)
0.788

Report composite z-score, nothing else, for this molecule: COC(=O)[C@H](C)NC(=O)CCC1CC(OC(=O)NCc2ccc3c(c2)OCO3)CC2(CCCC(COC(=O)NCCC(C)C)O2)O1 (some centres undefined)
0.0667

Give me measured composite z-score, please, for this molecule: `O=C1C[C@@H](O)[C@@H](O)[C@@H]2[C@@H]3C(=O)N(Cc4ccccc4)C(=O)[C@@H]3CC[C@H]12`
0.941

Specify measured composite z-score for COC(=O)[C@H](C)NC(=O)CCC1CC(OC(=O)NCc2cccc3ccccc23)CC2(CCCC(COC(=O)NCCCN3CCCC3=O)O2)O1 (some centres undefined) .
1.1

Tell me its composite z-score given `CO[C@@H]1[C@H](O)CO[C@H]1C=Cc1ccccc1` as the entry.
0.17

Identify the reported composite z-score for the following entry. `CC(=O)OC[C@H]1O[C@H](C#CCC2CCCCC2)C=C[C@@H]1OC(C)=O`
1.04

Give the reported value of composite z-score for this record: COC(=O)[C@H](C)NC(=O)CCC1CC(OC(=O)NCc2cccc3ccccc23)CC2(CCCC(COC(=O)NCCOc3ccccc3)O2)O1 (some centres undefined)
1.09

Given the molecule CC(CCN1CCc2nc(-c3ccccc3)c(-c3ccccc3)cc2C1)=NOC(C)CN1CCCc2nc(C)c(C)cc21 (centres undefined) , write its reported composite z-score.
1.08

Return value of composite z-score for input `CC[C@@H](c1ccccc1)n1c(=O)n2n(c1=O)[C@H]1[C@H](O)[C@@H]3O[C@@H]3C(=NOCc3ccccc3)[C@H]1CC2` , no commentary.
0.966

// fetch composite z-score given entry CC(C)=NOC(C)CN1CCCCc2nc(C)c(C)cc21 (centres undefined)
0.109

Look up composite z-score of `CC(C)CON=C1C[C@@H](O)[C@@H](O)[C@@H]2[C@@H]3C(=O)N(Cc4ccccc4)C(=O)[C@@H]3CC[C@H]12` and report it.
0.321

Consider the molecule `CCN1C(=O)[C@H]2[C@H]3[C@H](O)[C@H](O)CC(=NO[C@@H]4O[C@H](CO)[C@@H](O)[C@H](O)[C@H]4O)[C@H]3CC[C@H]2C1=O` and give its recorded composite z-score.
0.634

Fill in reported composite z-score for this entry: `CCN1C(C)=C(C(=O)OC)[C@@H](c2ccccc2)N2C(=O)[C@](O)(C(=O)OC)CC(C(C)=O)=C12`
0.29

For the molecule `CC#CCOCCC=C1c2ccccc2[C@@H](OC)[C@@H]1C` , give its reported composite z-score.
-0.515

Note down composite z-score recorded for COCCNC(=O)OCC1CCCC2(CC(OC(=O)NCc3cccc4ccccc34)CC(CCC(=O)N[C@@H](C)C(=O)OC)O2)O1 (some centres undefined)
1.03

Report composite z-score for `CCN1C(=O)[C@H]2[C@H]3[C@H](O)[C@H](O)CC(=NOC[C@@H](O)[C@H]4O[C@@H]5OC(C)(C)O[C@@H]5[C@H]4O)[C@@H]3CC[C@H]2C1=O`
-0.406
